Origin of measurements: patent US20070155795A1

- Study target: m1 muscarinic receptor subtype (Homo sapiens, UniProt P11229)
- Construct: expressed in transfected cells; host or cells: NIH-3T3 (ATCC CRL 1658)
- Sequence (P11229 1-460): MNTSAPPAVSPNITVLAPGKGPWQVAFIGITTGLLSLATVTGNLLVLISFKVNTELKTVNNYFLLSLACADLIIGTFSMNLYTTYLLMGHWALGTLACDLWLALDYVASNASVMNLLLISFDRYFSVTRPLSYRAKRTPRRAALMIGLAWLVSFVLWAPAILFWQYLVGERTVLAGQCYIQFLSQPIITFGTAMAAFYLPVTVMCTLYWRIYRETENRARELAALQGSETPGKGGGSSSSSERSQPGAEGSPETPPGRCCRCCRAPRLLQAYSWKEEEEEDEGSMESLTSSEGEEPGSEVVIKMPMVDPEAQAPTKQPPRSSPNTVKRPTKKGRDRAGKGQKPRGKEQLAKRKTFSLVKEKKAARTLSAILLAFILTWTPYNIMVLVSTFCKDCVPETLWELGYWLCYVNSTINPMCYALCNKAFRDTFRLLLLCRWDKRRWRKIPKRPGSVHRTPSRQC
- Protocol summary: R-SAT assay, muscarinic receptor subtype m1
- Assay type: cell-based
- Condition parameters: transfected NIH-3T3 cells, 5 days
- Experimental: Transfected cells were grown in the presence of between 1 nM and 40 μM of the test compound for 5 days. On day 5, the cells were lysed using 0.5% Nonidet-P and β-galactosidase expression was quantified using the chromogenic substrate o-nitrophenyl-β-D-galactoside (ONGP). […]
// m1 pEC50 lookup, one value per entry
Response field accepts a number only; no unit should be typed.

Data request, read-out m1 pEC50, for CCCCC1CCN(CCCc2nc3c(C)cccc3[nH]2)CC1
6.4
